Ref: patent US8895695B2

Test Target: CXCR4 (Homo sapiens)
Sequence (P61073 whole entry): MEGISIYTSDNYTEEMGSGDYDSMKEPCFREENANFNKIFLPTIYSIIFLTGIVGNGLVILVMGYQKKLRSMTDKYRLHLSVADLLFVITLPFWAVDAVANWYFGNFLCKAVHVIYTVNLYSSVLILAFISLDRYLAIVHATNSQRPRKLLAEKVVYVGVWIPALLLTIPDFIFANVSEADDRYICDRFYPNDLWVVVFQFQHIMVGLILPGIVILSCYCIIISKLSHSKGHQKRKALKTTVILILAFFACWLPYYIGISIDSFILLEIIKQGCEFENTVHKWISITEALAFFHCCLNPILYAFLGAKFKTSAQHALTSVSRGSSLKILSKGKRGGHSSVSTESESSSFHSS
Measurement Protocol: Ca2+-assay method 2 (Flexstation, SDF-1 induced calcium mobilization)
Type: cell-based
Design: expressed in transfected cells; host or cells: mouse pre-B cell line 300-19
Condition Description: method 2 (Ex. 54-160), mouse pre-B cell line 300-19 with human CXCR4, 10 nM SDF-1; read-out: IC50 (nM) Ca^2+ assay
Procedure: 2.2. Ca^2+-Assay: CXCR4-Antagonizing Activity of the Peptides. The cells were batch loaded with the Calcium 3 Assay kit (Molecular Devices) in assay buffer (Hanks Balanced salt solution, HBSS, 20 mM HEPES, pH 7.4, 0.1% BSA) for 1 h at room temperature and then 200,000 labeled cells were dispensed into black 96 well assays plates (Costar No. 3603). […] A maximal change in fluorescence response above baseline was used to calculate antagonist activity. […]
Bridge positions count the residues as written; N and C are the ends. Square brackets hold non-standard residues; d marks the D form. Peptide text beside a SMILES is read from it. 2Nal = N[C@@H](Cc1ccc2ccccc2c1)C(=O)O; Cit = NC(=O)NCCC[C@H](N)C(=O)O

- Molecule: "N=C(N)NCCC[C@@H]1NC(=O)[C@@H]2CSSC[C@H](NC(=O)[C@H](Cc3ccc4ccccc4c3)NC(=O)[C@H](CCCNC(=N)N)NC(=O)[C@H](CCCNC(=N)N)NC(=O)[C@H]3CCCN3C(=O)CNC1=O)C(=O)N[C@@H](Cc1ccc(O)cc1)C(=O)N[C@@H](CCC(N)=O)C(=O)N[C@@H](CCC(=O)O)C(=O)N1CCC[C@@H]1C(=O)N1CCC[C@H]1C(=O)N[C@@H](Cc1ccc(O)cc1)C(=O)N[C@@H](CCCNC(=N)N)C(=O)N[C@@H](CCCNC(N)=O)C(=O)N2 [Ex. 61] (cyclo(YR[Cit]CRG[dP]RR[2Nal]CYQE[dP]P); disulfide 4-11)"
  IC50: "4.1 nM"
- Molecule: "N=C(N)NCCC[C@@H]1NC(=O)[C@@H]2CSSC[C@H](NC(=O)[C@H](Cc3ccc4ccccc4c3)NC(=O)[C@H](CCCNC(=N)N)NC(=O)[C@H](CCCNC(=N)N)NC(=O)[C@H]3CCCN3C(=O)CNC1=O)C(=O)N[C@@H](Cc1ccc(O)cc1)C(=O)N[C@@H](CCC(N)=O)C(=O)N[C@@H](CC(=O)O)C(=O)N1CCC[C@@H]1C(=O)N1CCC[C@H]1C(=O)N[C@@H](Cc1ccc(O)cc1)C(=O)N[C@@H](CCCNC(=N)N)C(=O)N[C@@H](CCCNC(N)=O)C(=O)N2 [Ex. 85] (cyclo(YR[Cit]CRG[dP]RR[2Nal]CYQD[dP]P); disulfide 4-11)"
  IC50: "2.7 nM"
